Attribute: Ki
# tested-on: BCL2 D103Y (Homo sapiens, UniProt P10415, D103Y)
# protocol-details: TR-FRET competitive binding assay, BCL2 D103Y
# measurement-parameters: Ki determined from IC50, read-out: TR_FRET EKI_Bcl2 D103Y

>  <compound>
Cc1c(C(=O)N(c2ccccc2)c2cnc3c(cnn3C)c2)cc(-c2cc3c(cc2C(=O)N2Cc4ccccc4C[C@H]2C)CN(C(=O)Cc2ccc(OCCN4CCOCC4)cc2)CC3)n1C

>  <Ki (nM)>
0.05

$$$$
>  <compound>
COCCn1cc(N(C(=O)c2cc(-c3cc4c(cc3C(=O)N3Cc5ccccc5C[C@H]3C)CN(C(=O)Cc3ccc(OCCN5CCOCC5)cc3)CC4)n(C)c2C)c2ccc(O)cc2)cn1

>  <Ki (nM)>
0.1

$$$$
>  <compound>
Cc1c(N(C(=O)c2cc(-c3cc4c(cc3C(=O)N3Cc5ccccc5C[C@H]3CN3CCC5(CC3)CC5)CN(C(=O)Cc3ccc(OCCN5CCOCC5)cc3F)CC4)n(C)c2C)c2ccc(O)cc2)cc(C#N)n1C

>  <Ki (nM)>
0.37

$$$$
